tested on: CAKI-1 renal; assay: NCI tumour cell line growth inhibition, 48 h
Please provide measured GI50 for the entries that follow.

Measured on CAKI-1 renal, Cc1cc(N=Nc2ccccc2C)ccc1N has a documented GI50 of 7.38 µM

Field GI50 (system: CAKI-1 renal) for entry O=C(/C=C/c1cccc(O)c1)c1cccc(-n2cc(-c3ccccc3)[nH]c2=O)c1 = 4.95 µM

Case COc1cc2nc(-c3cc(F)ccc3O)nc(N[C@@H]3CNC[C@H]3C(C)(C)O)c2cc1OC , CAKI-1 renal, GI50 recorded as 1 µM

GI50 value, target or system CAKI-1 renal, for CC1=C(CC(=O)c2cccc([N+](=O)[O-])c2)C(=O)c2ccccc2C1=O : 21.7 µM

Field GI50 (CAKI-1 renal), entry CC(C)(Br)C(=O)C(Br)Br : 5.21 µM

GET /values?item= COc1ccc(N(CC(=O)NCCC[Te]c2ccccc2)C(=O)CNC(=O)OC(C)(C)C)cc1 &system= CAKI-1 renal returns GI50: 2.1 µM

###

system: A549 NSCLC; experiment: NCI tumour cell line growth inhibition, 48 h
assay.metric: TGI

TGI reading for Cc1ccc(S(=O)(=O)N/N=C(/CC(=O)c2c(C)n([O-])c3ccccc3[n+]2=O)C(=O)Nc2ccccc2C)cc1 : > 100 µM

In plain terms, O=[N+]([O-])c1ccc(-c2nc3ccc(Cl)cc3[nH]2)cc1 has a documented TGI of > 100 µM

The recorded TGI for entry NC(=O)NNC(=O)NC12CC3CC(CC(C3)C1)C2 equals > 100 µM

Per the record, Cc1cccc2c3c(sc12)C(c1ccc(Cl)cc1)C(C#N)=C(N)O3 (centres undefined) has TGI of 9.66 µM

compound COCOCC/C=C/C=O , TGI observed: > 100 µM

compound Oc1ccc(C(c2ccc(O)cc2)c2ccc(Br)cn2)cc1 , TGI observed: 60 µM

In plain terms, COC(=O)[C@@]1(C(C)CC(=O)O)CCCCC1=O (some centres undefined) has a documented TGI of > 100 µM

Value of measured TGI for the entry O=C1CSC2(CC(/C=C/c3cccc([N+](=O)[O-])c3)=NN2c2cccc(S(=O)(=O)O)c2)N1c1nc2ccccc2s1 (centres undefined) : 69.2 µM

Record CCN(CC)c1ccc2c(c1)Oc1ccc(N(CC)CC)cc1C21Oc2ccccc2-c2c1c1ccccc1n2CC (centres undefined) , field TGI: > 100 µM

Briefly, TGI measured for CC(=O)NCc1cccc(C#Cc2cncnc2Nc2ccc(OCc3cccc(F)c3)c(Cl)c2)c1 : > 25 µM

Lab note: measured TGI of CCCCCCNC(=O)Oc1ccc(/C(=C(\C)c2ccc(Cl)cc2)c2ccc(OCCN3CCCCC3)cc2)cc1 was 10.5 µM

TGI reading for CCCCc1ccc(-n2sc3ncc(C)cc3c2=O)cc1 : 78.9 µM

Form: compound = COC(=O)c1c(C)n([O-])c2cc(Cl)c(Cl)cc2[n+]1=O ; TGI = 28.6 µM

The compound listed as CON(C)c1nc(N(C)OC)nc(N(C)OC)n1 shows TGI equal to > 10 µM

In plain terms, C[C@]12CC[C@@H]3c4cc(OC(F)F)c(OS(N)(=O)=O)cc4CC[C@H]3[C@@H]1CC[C@@H]2O has a documented TGI of > 88.2 µM

Kindly note the recorded TGI for COc1cc(O)c2c(=O)c(O)c(-c3ccc(O)c(OC)c3)oc2c1 , which is > 100 µM

Input O=C(/C=C/c1cccc(O)c1)c1cccc(-n2cc(-c3ccccc3)[nH]c2=O)c1 . Output TGI: 21.8 µM

TGI measured on CC(=O)OCCOCNC(=S)N/N=C/c1cc(Br)cs1 = > 100 µM

Value of TGI reported for the compound CC(=O)Oc1ccc(/C=C/C(=O)OCCCOC(=O)/C=C/c2ccc(OC(C)=O)c(OC(C)=O)c2)cc1OC(C)=O is > 100 µM

Entry COC(=O)[C@H]1CCCN1C(=O)[C@H]1CCCN1C(=O)[C@@H](Cc1c[nH]c2ccccc12)NC(=S)Nc1cc(C(F)(F)F)cc(C(F)(F)F)c1 — recorded TGI = 4.52 µM

Value of measured TGI for the entry O=C(c1ccccc1)N(C(=O)c1ccccc1)c1nc(SCc2ccccc2)ns1 : > 100 µM

Briefly, TGI measured for CC1(C)OC(=S)N(c2ccccc2)C12C=Cc1ccccc1O2 (centres undefined) : > 100 µM

The compound N#CC(C#N)c1ccc(C(=O)N2CCC[C@H]2CO)cc1 showed TGI equal to > 100 µM

Looking up CC1=C(O)C2=C(C(=O)C1=O)[C@@H](C)CC[C@@H]2[C@@H](C)C/C=C/C(C)(C)O , I see its TGI listed as > 100 µM
